target: Recombinant HCV polymerase (BK strain) (Hepatitis C virus genotype 1b); construct: Recombinant HCV polymerase (BK strain) was expressed and purified from E. coli with a 21 amino acid C-terminal deletion; His6; assay: HCV polymerase enzyme assay (radiometric [33P]-UTP incorporation)
MEASUREMENT_LABEL: pIC50
The read-out pIC50 is expressed as -log10 of concentration in moles per litre.

Exam item: Give its pIC50 value. Item: COCCNc1ncc(F)cc1C(=O)NC1N=C(c2c(Cl)cc(Cl)cc2Cl)c2ccccc2NC1=O (centres unmarked) [Example 42]
Marked response: 6.01

Exam item: Now consider CCOc1cc(Cl)cc(Cl)c1C1=NC(NC(=O)c2cc(F)cnc2OCCOC)C(=O)Nc2ccccc21 (centres unmarked) [Example 57] .
Marked response: 7.14

Exam item: Now consider COCCOc1ccc(Cl)cc1C(=O)N[C@H]1N=C(c2c(Cl)cc(Cl)cc2Cl)c2ccccc2NC1=O [Example 59] .
Marked response: 7.06

Exam item: Now consider COCCOc1ccc(Br)cc1C(=O)NC1N=C(c2c(Cl)cc(Cl)cc2Cl)c2ccccc2NC1=O (centres unmarked) [Example 20] .
Marked response: 6.27

Exam item: Now consider COCCOc1ccc(F)cc1C(=O)NC1N=C(c2c(Cl)cc(Cl)cc2OC)c2ccccc2NC1=O (centres unmarked) [Example 53] .
Marked response: 6.81

Exam item: Now consider COCCCOc1ccc(Cl)cc1C(=O)NC1N=C(c2c(Cl)cc(Cl)cc2Cl)c2ccccc2NC1=O (centres unmarked) [Example 1] .
Marked response: 6.45

Exam item: Now consider O=C(NC1N=C(c2c(Cl)cc(Cl)cc2Cl)c2ccccc2NC1=O)c1cc(Cl)ccc1OCC1CCCO1 (centres unmarked) [Example 9] .
Marked response: 6.53

Exam item: Now consider COCCOc1ncccc1C(=O)NC1N=C(c2c(Cl)cc(Cl)cc2Cl)c2ccccc2NC1=O (centres unmarked) [Example 31] .
Marked response: 6.61

---

I'd appreciate it if you could supply IC50 values for the items below.
target: Recombinant HCV polymerase (BK strain) (Hepatitis C virus genotype 1b, UniProt P26663); construct: Recombinant HCV polymerase (BK strain) was expressed and purified from E. coli with a 21 amino acid C-terminal deletion; His6; experiment: HCV polymerase enzyme assay (radiometric [33P]-UTP incorporation)
Sequence (P26663 2420-2989): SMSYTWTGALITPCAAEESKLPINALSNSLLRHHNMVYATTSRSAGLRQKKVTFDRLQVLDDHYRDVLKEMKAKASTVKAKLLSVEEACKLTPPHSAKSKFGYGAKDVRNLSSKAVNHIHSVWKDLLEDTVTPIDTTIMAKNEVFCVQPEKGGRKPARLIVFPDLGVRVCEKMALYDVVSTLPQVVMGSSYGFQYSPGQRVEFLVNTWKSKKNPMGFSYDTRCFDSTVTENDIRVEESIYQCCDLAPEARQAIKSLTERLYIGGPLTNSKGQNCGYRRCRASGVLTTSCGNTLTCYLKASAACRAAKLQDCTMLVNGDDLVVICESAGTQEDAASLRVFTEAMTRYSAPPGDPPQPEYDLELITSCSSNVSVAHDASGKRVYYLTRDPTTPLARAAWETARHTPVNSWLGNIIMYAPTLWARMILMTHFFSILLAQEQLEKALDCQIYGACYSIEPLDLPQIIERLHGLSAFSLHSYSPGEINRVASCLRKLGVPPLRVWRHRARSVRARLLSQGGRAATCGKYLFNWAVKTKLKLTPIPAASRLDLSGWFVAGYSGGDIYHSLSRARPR
Please answer using a numeric value trailed by its unit.

Exam item: Give its IC50 value. Item: CCOCCOc1ncc(F)cc1C(=O)NC1N=C(c2c(Cl)cc(Cl)cc2OC)c2ccccc2NC1=O (stereo not shown)
Marked response: 116 nM

Exam item: Now consider `CCOc1cc(Cl)cc(Cl)c1C1=N[C@@H](NC(=O)c2cc(F)ccc2OCCOC)C(=O)Nc2ccccc21` .
Marked response: 5360 nM

Exam item: Now consider COCCOc1ccc(F)cc1C(=O)NC1N=C(c2c(Cl)cccc2Cl)c2ccccc2NC1=O (stereo not shown) .
Marked response: 155 nM

Exam item: Now consider COCCOc1ccc(Cl)cc1C(=O)NC1N=C(c2c(Cl)cccc2Cl)c2ccccc2NC1=O (stereo not shown) .
Marked response: 149 nM

Exam item: Now consider COCCOc1ccc(F)cc1C(=O)NC1N=C(c2c(Cl)cc(Cl)cc2Cl)c2ccccc2NC1=O (stereo not shown) .
Marked response: 119 nM

Exam item: Now consider CC(=O)NCCOc1ccc(Cl)cc1C(=O)NC1N=C(c2c(Cl)cc(Cl)cc2Cl)c2ccccc2NC1=O (stereo not shown) .
Marked response: 98.7 nM

Exam item: Now consider CN(CCOCC1CC1)c1ncc(F)cc1C(=O)NC1N=C(c2c(Cl)cc(Cl)cc2Cl)c2ccccc2NC1=O (stereo not shown) .
Marked response: 168 nM

Exam item: Now consider CS(=O)(=O)CCOc1ccc(Cl)cc1C(=O)NC1N=C(c2c(Cl)cc(Cl)cc2Cl)c2ccccc2NC1=O (stereo not shown) .
Marked response: 747 nM

Exam item: Now consider CCC(=O)NCCOc1ccc(Cl)cc1C(=O)NC1N=C(c2c(Cl)cc(Cl)cc2Cl)c2ccccc2NC1=O (stereo not shown) .
Marked response: 197 nM

Exam item: Now consider CN(C)CCCOc1ccc(Cl)cc1C(=O)NC1N=C(c2c(Cl)cc(Cl)cc2Cl)c2ccccc2NC1=O (stereo not shown) .
Marked response: 3130 nM

Exam item: Now consider COCCOc1nccc(C)c1C(=O)NC1N=C(c2c(Cl)cc(Cl)cc2Cl)c2ccccc2NC1=O (stereo not shown) .
Marked response: 2960 nM

Exam item: Now consider `CCOCCOc1ncc(F)cc1C(=O)N[C@H]1N=C(c2c(Cl)cc(Cl)cc2Cl)c2ccccc2NC1=O` .
Marked response: 32.3 nM

Exam item: Now consider COCCOCCOc1ccc(Cl)cc1C(=O)NC1N=C(c2c(Cl)cc(Cl)cc2Cl)c2ccccc2NC1=O (stereo not shown) .
Marked response: 209 nM
